testSystem: UniProtKB P11712
Sequence (P11712 whole entry): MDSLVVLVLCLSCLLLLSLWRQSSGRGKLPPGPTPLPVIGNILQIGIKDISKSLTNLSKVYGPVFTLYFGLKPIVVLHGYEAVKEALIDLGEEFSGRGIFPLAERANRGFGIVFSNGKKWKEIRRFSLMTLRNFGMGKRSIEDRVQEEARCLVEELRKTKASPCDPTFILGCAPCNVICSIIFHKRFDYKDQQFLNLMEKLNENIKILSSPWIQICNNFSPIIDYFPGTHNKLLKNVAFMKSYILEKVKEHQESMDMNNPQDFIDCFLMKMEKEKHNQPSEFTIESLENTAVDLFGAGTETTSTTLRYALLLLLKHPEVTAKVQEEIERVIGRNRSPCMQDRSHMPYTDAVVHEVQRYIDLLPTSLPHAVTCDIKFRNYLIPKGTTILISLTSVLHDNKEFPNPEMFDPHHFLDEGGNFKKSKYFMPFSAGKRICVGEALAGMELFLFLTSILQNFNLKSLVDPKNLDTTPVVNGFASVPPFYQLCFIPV
protocolSummary: Human liver microsomal CYP inhibition test, CYP2C9
Assay type: in vitro ADME
measurementContext: human liver microsomes 0.2 mg/mL; substrate Diclofenac

[
  {
    "molecule": "COc1c([C@H]2[C@H](C(=O)Nc3cccc(S(N)(=O)=O)c3)N[C@@](C)(C(F)(F)F)[C@H]2C)ccc(F)c1F [Compound 8]",
    "IC50": "22.9 µM"
  },
  {
    "molecule": "COc1c([C@H]2[C@H](C(=O)Nc3ccc[n+]([O-])c3)N[C@@](C)(C(F)(F)F)[C@H]2C)ccc(F)c1F [Compound 7]",
    "IC50": "> 50 µM"
  },
  {
    "molecule": "COc1c([C@H]2[C@H](C(=O)Nc3ccc(F)c(C(=N)NO)c3)N[C@@](C)(C(F)(F)F)[C@H]2C)ccc(F)c1F.Cl [Compound 10, hydrochloride]",
    "IC50": "> 50 µM"
  },
  {
    "molecule": "COc1c([C@H]2[C@H](C(=O)Nc3ccnc(C(N)=O)c3)O[C@@](C)(C(F)(F)F)[C@H]2C)ccc(F)c1F [VX-548, reference compound]",
    "IC50": "17.4 µM"
  }
]

Provenance of the data: patent US20250296922A1
